B1: library; a variant is named by its letters at N, in order (parent)
chain: GAGACCGCAACTGAAAAGTTGTGGNNNNNATAGTGAGTCGCTGCCTGCAAAGACACAACT

variants of: B1; assay: ligation selection enrichment (abundance after / before one-round selection) (fold); higher = more template-directed ligation activity; details: with T7Psub CACGGAUGCUAAUACGACUCACUAUA; MgCl2 25 mM; 42 °C; 4 h; pH 8.5
Item-by-item account of ligation selection enrichment
Number only, no unit.

Take a look at these entries with their results.
Query: Quick one: ligation selection enrichment of AGATC ?
Reply: 0.204

Query: Moving on to the next variant: GGGTC
Reply: 0.201

Query: Moving on to the next variant: GCTAT
Reply: 0.196

Query: Moving on to the next variant: ATGTA
Reply: 0.206

// next entry
Query: Quick one: ligation selection enrichment of ACTAG ?
Reply: 0.403
